Assay: physchem
Conditions: 25 °C, organic solvent or mixture, thermodynamic from solid, Solubility
ENDPOINT: solubility at 5 min (mg/mL)
// return numeric value only (unit: mg/mL, not printed)

What value of measured solubility at 5 min is listed for O=C(O)c1cc(O)c(O)c(O)c1 ?
42

What value of measured solubility at 5 min is listed for O=C(/C=C/c1ccc(O)c(O)c1)O[C@H](Cc1ccc(O)c(O)c1)C(=O)O ?
12.8

What value of measured solubility at 5 min is listed for COc1cc(/C=C/C(=O)CC(=O)/C=C/c2ccc(O)c(OC)c2)ccc1O ?
5.85

----------
solubility at 5 min values, listed per item
Test: physchem
Conditions: aqueous with cosolvent or surfactant or cyclodextrin, thermodynamic from solid, Solubility
// return numeric value only (unit: mg/mL, not printed)

Consider the reported solubility at 5 min for these compounds:
COc1cc(/C=C/C(=O)CC(=O)/C=C/c2ccc(O)c(OC)c2)ccc1O    3.65
O=C(/C=C/c1ccc(O)c(O)c1)O[C@H](Cc1ccc(O)c(O)c1)C(=O)O    302

Let us examine a further case.
What value of measured solubility at 5 min is listed for O=C(O)c1cc(O)c(O)c(O)c1 ?
95.1
